- PROTOCOL NOTES: HPLC lipophilicity (log kW, standardized to log PEXP)
- Type: physicochemical
- ASSAY SETUP: LiChrospher RP8 HPLC column (125 × 4.0 mm, 5 µm), HPLC.RP8/MeOH
Each entry below lists one item and its recorded chromatographic logP value.

COMPOUND: OC[C@H]1O[C@@H](c2ccc(Cl)c(Cc3ccc(O[C@H]4CCOC4)cc3)c2)[C@H](O)[C@@H](O)[C@@H]1O [EMPA, empagliflozin]
RESULT VALUE: 2.78

Now for the compound whose chromatographic logP we want.
Request: Please look at this compound and report its chromatographic logP: CCOc1ccc(Cc2cc([C@]34OC[C@](CO)(O3)[C@@H](O)[C@H](O)[C@H]4O)ccc2Cl)cc1 [ERTU, ertugliflozin]
Result: 3.49
